Source of measurements: paper PMC5550016

biological target: urease in intact E. coli (pGEM::ureOP) cells (Helicobacter pylori); construct: plasmid pGEM::ureOP, which encodes the entire urease gene cluster, was used to produce recombinant H. pylori urease; expressed in transfected cells; host or cells: E. coli Rosetta2 (DE3) transformed with pGEM::ureOP; assay: Urease inhibition in whole cells of E. coli + pGEM::ureOP; format: cell-based; conditions: IC502h PBS, 2 h of preincubation with inhibitors in PBS; IC50 exceeding 2 mM considered not active
Recorded log10 IC50 for the following molecules
quantity_name: log10 IC50 (log10 of the value in µM)

# smiles_structure, quantity_name, numeric_value
records = [
    ("CNCP(=O)(O)CNC", "log10 IC50", 2.43),
    ("CNCP(=O)(O)O", "log10 IC50", 2.04),
    ("CCCNCP(=O)(O)CN", "log10 IC50", 2.49),
    ("CCCCCNCP(=O)(O)CN", "log10 IC50", 2.68),
    ("CCCCNCP(=O)(O)CN", "log10 IC50", 2.45),
    ("CN(C)CP(C)(=O)O", "log10 IC50", 1.40),
]

---

Recorded IC50 for the following compounds
target: urease in intact E. coli (pGEM::ureOP) cells (Helicobacter pylori, UniProt B5Z674); construct: plasmid pGEM::ureOP, which encodes the entire urease gene cluster, was used to produce recombinant H. pylori urease; expressed in transfected cells; host or cells: E. coli Rosetta2 (DE3) transformed with pGEM::ureOP; experiment: Urease inhibition in whole cells of E. coli + pGEM::ureOP; format: cell-based; details: IC500, without preincubation of cells with inhibitory compounds; 30-min reactions, 5 mM urea; IC50 exceeding 2 mM considered not active
Sequence (B5Z674 whole entry, looked up): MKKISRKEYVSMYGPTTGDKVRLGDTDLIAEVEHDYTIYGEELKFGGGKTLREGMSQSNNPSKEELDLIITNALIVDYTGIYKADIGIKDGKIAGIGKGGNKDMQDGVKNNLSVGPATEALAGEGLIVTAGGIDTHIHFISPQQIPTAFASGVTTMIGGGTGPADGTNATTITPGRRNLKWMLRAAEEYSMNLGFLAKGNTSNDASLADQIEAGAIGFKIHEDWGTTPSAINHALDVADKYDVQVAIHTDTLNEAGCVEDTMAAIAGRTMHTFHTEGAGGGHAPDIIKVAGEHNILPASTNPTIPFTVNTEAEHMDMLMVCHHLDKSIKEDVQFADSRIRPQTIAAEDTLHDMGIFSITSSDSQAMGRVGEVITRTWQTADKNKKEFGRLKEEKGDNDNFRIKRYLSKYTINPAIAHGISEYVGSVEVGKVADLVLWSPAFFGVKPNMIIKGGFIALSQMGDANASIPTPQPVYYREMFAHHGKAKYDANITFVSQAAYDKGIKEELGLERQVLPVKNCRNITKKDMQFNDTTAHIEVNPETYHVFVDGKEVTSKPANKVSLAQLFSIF
quantity_name: IC50

# compound, result
records = [
    ("CN(C)CP(C)(=O)O [Compound 3]", "179 µM"),
    ("CNCP(=O)(O)CN [Compound 7]", "880 µM"),
    ("CCCNCP(=O)(O)CN [Compound 9]", "746 µM"),
    ("CNCP(=O)(O)CNC [Compound 21, bis(N-methylaminomethyl)phosphinic acid]", "1260 µM"),
    ("CCCCCCNCP(=O)(O)CN [Compound 13]", "186 µM"),
    ("CCCCNCP(=O)(O)CN [Compound 11]", "779 µM"),
    ("CCCCCNCP(=O)(O)CN [Compound 12]", "1670 µM"),
    ("CNCP(=O)(O)CO [Compound 4]", "759 µM"),
    ("CNCP(C)(=O)O [Compound 2]", "573 µM"),
    ("CNCP(=O)(O)O [Compound 1, N-methylaminomethylphosphonic acid]", "164 µM"),
]

---

Target: urease in intact E. coli (pGEM::ureOP) cells (Helicobacter pylori, UniProt B5Z674)
Construct: plasmid pGEM::ureOP, which encodes the entire urease gene cluster, was used to produce recombinant H. pylori urease; expressed in transfected cells; host or cells: E. coli Rosetta2 (DE3) transformed with pGEM::ureOP
Assay: Urease inhibition in whole cells of E. coli + pGEM::ureOP
Assay type: cell-based
Details: IC502h PBS, 2 h of preincubation with inhibitors in PBS; IC50 exceeding 2 mM considered not active
Description: The expression strain E. coli + pGEM::ureOP was cultured in 150 mL of LB broth (Biocorp, Poland) with 100 μg/mL ampicillin (Polfa, Tarchomin, Poland) at 37°C and induced with IPTG (0.75 mM) and Ni^2+ (0.75 mM) during the exponential growth phase, which was determined by the OD600 measurements (OD600 = 0.6). […] The absorption of indophenol blue was measured at 650 nm using a TECAN-Sunrise absorbance reader equipped with a gradient filter and Magellan software. […]
pIC50: −log10 of the molar value.

# smiles_structure, pIC50
measured = [
    ("CC(C)CNCP(=O)(O)CN", 2.73),
    ("CNCP(C)(=O)O", 3.51),
    ("CNCP(=O)(O)CO", 3.37),
    ("CCCCCCNCP(=O)(O)CN", 4.77),
    ("CNCP(=O)(O)CN", 3.36),
]
